These entries and their values trace back to patent US20250236644A1.

Target: T1, TAMRA-labeled effector peptide cs221B (5(6)-TAMRA label coupled on resin after synthesis)
T1 construct: also called TAMRA-cs221B
T1 peptide: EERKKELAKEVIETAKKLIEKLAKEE
Experiment: fluorescence polarization kinetics; slope of kapp against hinge concentration
Overview of reported kon across a group of binders:
Express the result in M⁻¹ s⁻¹ but write the number alone.

Here are 3 binders together with their reported answers.
- Binder: "cs221_L66T (designed binder, Point mutant of hinge cs221) MSGEMKEEIRRLAEELRERTKDEEVRELAREAARLAEESDDEEVKEVVKKALEAALKSKDEEVIRLLLTAAVLAAAAARSGSPEEKLEIAKKALELAMKSKDEEVIRLALLAAVLAARSDDEEVLKKVKEALEKAMESKDVEEIRERLREAVEVARAGSGSHHWGSTHHHHHH"
  kon / M⁻¹ s⁻¹: 2700
- Binder: "variant cs221_lockedY (designed binder, disulfide bond between the two introduced cysteines (locks the hinge in state Y; oxidized with copper phenanthroline), also called cs221 locked Y hinge variant) MSGEMKEEIRRLAEELRERTKDEEVRELAREAARLAEESDDEEVKEVVKKALEAALKSKDEEVIRLLLCAAVLAAAAARSGSPEEKLEIAKKALELAMKSKDEEVIRLACLAAVLAARSDDEEVLKKVKEALEKAMESKDVEEIRERLREAVEVARAGSGSHHWGSTHHHHHH"
  kon / M⁻¹ s⁻¹: 790000
- Binder: "cs221_A114T (designed binder, Point mutant of hinge cs221) MSGEMKEEIRRLAEELRERTKDEEVRELAREAARLAEESDDEEVKEVVKKALEAALKSKDEEVIRLLLLAAVLAAAAARSGSPEEKLEIAKKALELAMKSKDEEVIRLALLAAVLATRSDDEEVLKKVKEALEKAMESKDVEEIRERLREAVEVARAGSGSHHWGSTHHHHHH"
  kon / M⁻¹ s⁻¹: 27700

Now examine the next entry.
Ask: Which measured kon value corresponds to cs221_A73E (designed binder, Point mutant of hinge cs221) MSGEMKEEIRRLAEELRERTKDEEVRELAREAARLAEESDDEEVKEVVKKALEAALKSKDEEVIRLLLLAAVLAAEAARSGSPEEKLEIAKKALELAMKSKDEEVIRLALLAAVLAARSDDEEVLKKVKEALEKAMESKDVEEIRERLREAVEVARAGSGSHHWGSTHHHHHH ?
Result: 1900
